test: aqueous solubility of voriconazole; assay type: physicochemical; conditions: aqueous solution, pH 3, aqueous buffer
reported.endpoint: solubility (µg/mL)
Record the value in µg/mL, omitting the unit from your answer.

Exercise: So what's the measured solubility for this one? C[C@@H](c1ncncc1F)[C@](O)(Cn1cncn1)c1ccc(F)cc1F
Solution: 200
